# STUDY TARGET: Sialic acid-binding Ig-like lectin 9 (Homo sapiens)
# TEST DESCRIPTION: Hs-Siglec9 ALPHAscreen SOP 20170721
# Parameters: scale not given: direction of the effect not stated beside the values
# CONDITION NOTES: 10 µM
Quick reference: Percent Effect of the listed items.
Answer in %, number only, no unit symbol.

Please review the entries below; each comes with its answer.
MOLECULE | RESULT UNIT | Percent Effect
CN(C)CCn1c(=O)oc2ccc(NC(=O)c3cc(Cl)c[nH]3)cc21 | % | 6.1
Cn1cc(C(=O)NCc2cn3c(n2)CN(CC2CCOCC2)CC3)cn1 | % | -3.62
c1ccc(-c2nnn3c2COC(CNCC2CCOCC2)C3)cc1 (configuration not stated) | % | 4.62
CNC(=O)c1cc2c(nc1NCC(C)C)CCN(S(=O)(=O)C1CC1)CC2 | % | -6.06
CC1CCCCN1c1nc2c(c(=O)[nH]1)CCN(Cc1cccnc1)C2 (configuration not stated) | % | 3.8

Item COC(=O)N1CCc2ccc(NC(=O)c3cn(C)nn3)cc2C1 has what recorded Percent Effect?
5.76

Item CCc1c(C)nc2n(c1=O)CC(C(=O)Nc1nccs1)CS2 (configuration not stated) has what recorded Percent Effect?
-3.77

* * *

# STUDY TARGET: Ubiquitin-activating enzyme e1, putative (Leishmania donovani (strain BPK282A1)) (UniProt E9BSI1)
# Sequence (whole entry): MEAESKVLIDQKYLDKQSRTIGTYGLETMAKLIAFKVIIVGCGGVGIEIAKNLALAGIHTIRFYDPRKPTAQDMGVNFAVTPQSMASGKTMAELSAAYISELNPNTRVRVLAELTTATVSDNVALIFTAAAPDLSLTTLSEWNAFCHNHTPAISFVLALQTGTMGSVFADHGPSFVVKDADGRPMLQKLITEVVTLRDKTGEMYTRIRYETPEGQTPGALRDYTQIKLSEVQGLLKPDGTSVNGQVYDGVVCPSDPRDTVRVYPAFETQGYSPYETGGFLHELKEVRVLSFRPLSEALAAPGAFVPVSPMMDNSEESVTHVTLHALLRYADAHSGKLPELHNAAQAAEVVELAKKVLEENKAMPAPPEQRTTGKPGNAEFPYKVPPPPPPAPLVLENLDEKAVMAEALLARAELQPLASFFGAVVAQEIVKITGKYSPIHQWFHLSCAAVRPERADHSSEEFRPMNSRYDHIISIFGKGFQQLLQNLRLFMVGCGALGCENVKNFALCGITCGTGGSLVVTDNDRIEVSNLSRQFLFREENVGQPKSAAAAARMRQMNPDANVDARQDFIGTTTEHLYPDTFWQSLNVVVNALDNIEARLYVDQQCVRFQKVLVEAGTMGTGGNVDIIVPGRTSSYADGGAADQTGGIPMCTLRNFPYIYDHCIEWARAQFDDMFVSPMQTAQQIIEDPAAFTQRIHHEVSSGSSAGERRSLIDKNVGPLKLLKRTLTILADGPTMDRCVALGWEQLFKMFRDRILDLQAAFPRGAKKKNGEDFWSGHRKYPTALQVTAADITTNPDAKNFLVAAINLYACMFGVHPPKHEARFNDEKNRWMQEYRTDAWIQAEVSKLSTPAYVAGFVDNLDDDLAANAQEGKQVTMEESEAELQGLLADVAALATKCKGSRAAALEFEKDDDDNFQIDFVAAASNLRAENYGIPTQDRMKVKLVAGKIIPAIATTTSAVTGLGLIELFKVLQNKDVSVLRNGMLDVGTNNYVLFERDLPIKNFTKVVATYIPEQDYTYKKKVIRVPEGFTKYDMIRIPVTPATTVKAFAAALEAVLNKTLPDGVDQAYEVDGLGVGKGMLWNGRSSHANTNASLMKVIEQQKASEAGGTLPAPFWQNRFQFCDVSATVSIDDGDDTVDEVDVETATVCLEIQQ
# TEST DESCRIPTION: Leishmania donovani Ubiquitin Activating Enzyme (LdE1)
# Type: functional
# Design: scale not given: direction of the effect not stated beside the values
# CONDITION NOTES: 30 µM
Measured potencies and affinities stand elsewhere.
Assign labels as follows, please: Yes for Percent Effect below 10%; No for Percent Effect equal to or exceeding 10%.

Consider the following illustrative entries.
COMPOUND | CATEGORY
O=C(CCCOCc1ccccc1)N1CCCC1c1ccccn1 (stereo not drawn) | Yes
NC(=O)COc1ccc(CNCc2ccc(F)c(F)c2)cc1 | Yes
CC(=O)N1CCC(Oc2ccc(Cl)cn2)CC1 | Yes
Cc1nc(C)n(CC2CCCN(c3ncnc4[nH]ccc34)C2)n1 (stereo not drawn) | No
Cn1ncc2c(=O)[nH]c(CN3CCC(Cc4ccccc4)CC3)nc21 | No

Say whether its Percent Effect is strictly beneath 10%. Entry: Cc1nc(C2CCCN(C(=O)Cn3ccccc3=O)C2)no1 (stereo not drawn)
Yes

Say whether its Percent Effect is strictly beneath 10%. Entry: COc1ccccc1[C@@H]1CN(Cc2cc(C(C)(C)C)[nH]n2)C[C@H]1C(=O)O
No

Say whether its Percent Effect is strictly beneath 10%. Entry: Cc1cnn(CCNCC(O)COc2c(C)ccc(C)c2C)c1 (stereo not drawn)
No

Say whether its Percent Effect is strictly beneath 10%. Entry: Cc1nc(C2CCCN2C(=O)c2cc3c(s2)CCCC3)no1 (stereo not drawn)
Yes

Say whether its Percent Effect is strictly beneath 10%. Entry: CCN(CC)C(=O)CN(C)C1CCc2ccccc21 (stereo not drawn)
No

Say whether its Percent Effect is strictly beneath 10%. Entry: CS(=O)(=O)NCC1CCCCN1C(=O)Nc1cccnc1N1CCCC1 (stereo not drawn)
No

* * *

# STUDY TARGET: Protein translocase subunit SecA (Escherichia coli (strain K12))
# TEST DESCRIPTION: Assay to Identify E. coli SecA ATPase Inhibitors
# Type: functional
# Design: scale not given: direction of the effect not stated beside the values
# CONDITION NOTES: 30 µM
Results with a measured potency or affinity are listed apart.
Quick reference: Percent Effect of the listed items.
Answer in %, number only, no unit symbol.

MOLECULE | VALUE TYPE | ASSAY RESULT
CCOC1CCN(C(=O)c2c(Cl)c3ccccc3n2C)CC1 | Percent Effect | -2.47
CCc1c(C(=O)NCC(=O)OCC2CC2)cnn1-c1ccc(C)cc1 | Percent Effect | -5.86
CCN(C)c1ccc(C(=O)N(CCOC)Cc2ccccn2)cc1 | Percent Effect | -4.29
Cn1cc(CN2CCCN(C(=O)c3ccc4c(c3)COC4)CC2)cn1 | Percent Effect | -5.64
COc1ncccc1NC(=O)C1CC(=O)N(Cc2ccccn2)C1 (centres undefined) | Percent Effect | -1.71

Item CCc1cnc(CN2CCCC2c2noc(C3CC3)n2)o1 (centres undefined) has what recorded Percent Effect?
-2.28

Item CS(=O)(=O)CCN1CCC2(CCCN(C3CCOCC3)C2=O)C1 (centres undefined) has what recorded Percent Effect?
-4.3

Item Cc1cccc(N2CCN(C(=O)CN3CCN(CCO)CC3)CC2)c1 has what recorded Percent Effect?
-7.92

Item CC(=O)N(Cc1ncc(C)o1)C1CCN(Cc2ccncc2Cl)C1 (centres undefined) has what recorded Percent Effect?
-2.28

Item CC1c2ncc(Cn3cncn3)n2CCN1C(=O)C1CCOCC1 (centres undefined) has what recorded Percent Effect?
-4.07

* * *

Quick reference: Percent Effect of the listed items.
# STUDY TARGET: Arginase-2, mitochondrial (Homo sapiens)
# TEST DESCRIPTION: in vitro enzyme assay to detect the production of urea directly proportional to the activity of Arginase II; note: in the data most compounds retested in dose-response had high values
# Format: functional
# Set-up: scale not given: direction of the effect not stated beside the values
# CONDITION NOTES: 33.3 µM
Answer in %, number only, no unit symbol.

Please review the entries below; each comes with its answer.
MOLECULE | RESULT UNIT | Percent Effect
CCCOc1ccc(CNC2CCCc3c2cnn3CC)cc1OC (configuration not stated) | % | -3.04
COc1cc(N2CC[C@H](O)[C@@H]2Cc2cnn(C)c2)ncn1 | % | 8.6
O=C(COc1coc(CN2CCCCCC2)cc1=O)c1ccccc1 | % | -1.18
Cc1nc(CN2CCCC(NCc3c(C)nc4sccn34)C2)no1 (configuration not stated) | % | 0.712
CNC(=O)CSc1cnn(CC(=O)Nc2cccc(Cl)c2C)c(=O)c1Cl | % | 2.73

Param readout = Percent Effect; param system = Arginase-2, mitochondrial (Homo sapiens); param query = CC(C)c1nc(C2CCCN(C(=O)CCn3ccnc3)C2)no1 (configuration not stated) ; response: value
-17.6

Param readout = Percent Effect; param system = Arginase-2, mitochondrial (Homo sapiens); param query = CCCNC(=O)COc1ccc(C)cn1 ; response: value
-0.798

Param readout = Percent Effect; param system = Arginase-2, mitochondrial (Homo sapiens); param query = CN1CCN(C2CCN(CCOc3ccc(F)cc3)CC2)C1=O ; response: value
-0.356

Param readout = Percent Effect; param system = Arginase-2, mitochondrial (Homo sapiens); param query = CN(CCCc1ccccc1)Cc1nc2c(cnn2C)c(=O)[nH]1 ; response: value
2.4

Param readout = Percent Effect; param system = Arginase-2, mitochondrial (Homo sapiens); param query = Fc1ccc(-c2nnc(CN3CCOC(Cn4cncn4)C3)o2)cc1 (configuration not stated) ; response: value
3.56

Param readout = Percent Effect; param system = Arginase-2, mitochondrial (Homo sapiens); param query = O=C1N(c2cccc(Cl)c2)Cc2nc(=O)n(Cc3cccc(F)c3)n21 ; response: value
-10.4

Param readout = Percent Effect; param system = Arginase-2, mitochondrial (Homo sapiens); param query = CC(C)NC(=O)C1CN(C(=O)c2ccc(F)cc2)CC12CCOCC2 (configuration not stated) ; response: value
-7.22

Param readout = Percent Effect; param system = Arginase-2, mitochondrial (Homo sapiens); param query = CCN(CC)c1ccc(-c2nc(-c3cccc(OC)c3OC)no2)cn1 ; response: value
17.2

Param readout = Percent Effect; param system = Arginase-2, mitochondrial (Homo sapiens); param query = Cc1ccc(CNC(=O)Nc2cc(C(F)(F)F)c[nH]c2=O)cn1 ; response: value
4.42

Param readout = Percent Effect; param system = Arginase-2, mitochondrial (Homo sapiens); param query = c1ccc(Cn2cc(CNCC3CCCN3c3cccnn3)cn2)cc1 (configuration not stated) ; response: value
-7.55

Param readout = Percent Effect; param system = Arginase-2, mitochondrial (Homo sapiens); param query = CO[C@H]1CN(C(=O)c2ccc3oc(C)cc3c2)CC[C@@]12CCCO2 ; response: value
-0.696

Param readout = Percent Effect; param system = Arginase-2, mitochondrial (Homo sapiens); param query = Cn1ccc(C(=O)NC2CCC23CCN(C(=O)N2CCCC2)CC3)c1 (configuration not stated) ; response: value
-6.05

Param readout = Percent Effect; param system = Arginase-2, mitochondrial (Homo sapiens); param query = N#Cc1ccc(OCCNc2cccc(C(=O)N3CCOCC3)c2)cc1 ; response: value
-8.28

Param readout = Percent Effect; param system = Arginase-2, mitochondrial (Homo sapiens); param query = Cn1cccc1C(=O)N1CCN(Cc2ccncc2)c2ncccc2C1 ; response: value
-57.2

Param readout = Percent Effect; param system = Arginase-2, mitochondrial (Homo sapiens); param query = Cn1cnc(S(=O)(=O)NCCCN2CCOCC2)c1Cl ; response: value
26.1

Param readout = Percent Effect; param system = Arginase-2, mitochondrial (Homo sapiens); param query = COCCN1CCC(CNC(=O)C2(c3cc(C)cc(C)c3)CCC2)C1 (configuration not stated) ; response: value
2.88

Param readout = Percent Effect; param system = Arginase-2, mitochondrial (Homo sapiens); param query = N#Cc1cccc(CN2CC[C@@H]3[C@@H]2CC(=O)N3Cc2cccnc2)c1 ; response: value
-1.17

Param readout = Percent Effect; param system = Arginase-2, mitochondrial (Homo sapiens); param query = CN(CC1(O)CCCN(c2ccccn2)C1)C(=O)Cc1ccsc1 (configuration not stated) ; response: value
-1.62

Values from ChEMBL document CHEMBL3988442
